target: EGFR Del19/T790M/C797S (Homo sapiens, UniProt P00533, C797S/DEL746-750/T790M); assay: Biochemical EGFR kinase inhibition assay (Lance Ultra TR-FRET), triple mutant del19/T790M/C797S; settings: IC50 Del19/T790M/C797S (nM), 100 μM ATP
Sequence (P00533 with tags, fused parts or gaps DEL746-750/T790M/C797S): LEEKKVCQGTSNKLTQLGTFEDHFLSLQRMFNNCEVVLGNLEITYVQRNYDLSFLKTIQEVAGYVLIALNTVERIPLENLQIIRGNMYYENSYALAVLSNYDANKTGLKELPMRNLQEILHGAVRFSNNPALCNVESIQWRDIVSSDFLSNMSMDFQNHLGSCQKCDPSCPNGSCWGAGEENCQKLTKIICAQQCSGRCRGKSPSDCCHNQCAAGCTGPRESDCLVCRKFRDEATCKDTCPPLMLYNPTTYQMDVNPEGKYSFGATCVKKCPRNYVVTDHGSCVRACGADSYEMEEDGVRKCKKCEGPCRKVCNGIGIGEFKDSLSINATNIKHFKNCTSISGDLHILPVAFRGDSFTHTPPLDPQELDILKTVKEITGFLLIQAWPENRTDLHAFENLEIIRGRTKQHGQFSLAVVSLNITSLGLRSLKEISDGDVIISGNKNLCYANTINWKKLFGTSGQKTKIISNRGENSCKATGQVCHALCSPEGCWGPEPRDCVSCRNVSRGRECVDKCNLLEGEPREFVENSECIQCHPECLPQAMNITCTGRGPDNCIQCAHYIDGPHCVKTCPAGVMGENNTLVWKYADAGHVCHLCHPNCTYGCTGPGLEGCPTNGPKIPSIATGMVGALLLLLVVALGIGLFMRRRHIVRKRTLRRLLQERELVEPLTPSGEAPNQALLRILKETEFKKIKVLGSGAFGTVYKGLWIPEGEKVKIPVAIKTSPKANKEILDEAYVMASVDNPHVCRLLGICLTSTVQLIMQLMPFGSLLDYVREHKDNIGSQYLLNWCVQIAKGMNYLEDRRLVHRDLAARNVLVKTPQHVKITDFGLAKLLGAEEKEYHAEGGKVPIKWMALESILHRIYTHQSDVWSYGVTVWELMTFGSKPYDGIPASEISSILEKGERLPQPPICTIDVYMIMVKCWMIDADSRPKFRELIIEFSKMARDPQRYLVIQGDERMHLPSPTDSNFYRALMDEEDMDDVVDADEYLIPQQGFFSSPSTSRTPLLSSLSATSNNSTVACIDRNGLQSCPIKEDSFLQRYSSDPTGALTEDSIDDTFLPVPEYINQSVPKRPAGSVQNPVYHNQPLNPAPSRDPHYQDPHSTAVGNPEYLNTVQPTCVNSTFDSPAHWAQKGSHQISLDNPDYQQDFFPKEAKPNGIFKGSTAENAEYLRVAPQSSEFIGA
test_readout: log10 IC50 (log10 of the value in nM)
Please keep in mind that the values are log10 of IC50 expressed in nM.

Some entries whose results are on file:
Record request: log10 IC50 value, item CC1(CO)CCN(c2cc(Nc3ccnc(-c4cnn(S(=O)(=O)C5CC5)c4)n3)ncc2C#CC2CCN(S(=O)(=O)C3CC3)C2)CC1 (stereo not drawn) [Example 395]
-0.15

Record request: log10 IC50 value, item CC1(CO)CCN(c2cc(Nc3ccnc(-c4cnn(S(=O)(=O)C5CC5)c4)n3)ncc2C#C[Si](C)(C)C)CC1 [Example 246]
0.81

Record request: log10 IC50 value, item CC1(CO)CCN(c2cc(Nc3ccnc(-c4cnn(S(=O)(=O)C5CC5)c4)n3)ncc2C#CC2CCOC2)CC1 (stereo not drawn) [Example 197]
-0.52

Record request: log10 IC50 value, item CC(=O)N1CCC(n2cc(C#Cc3cnc(Nc4ccnc(-c5cnn(S(=O)(=O)C6CC6)c5)n4)cc3N3CCC(=O)CC3)cn2)CC1 [Example 108]
0.08

Record request: log10 IC50 value, item O=S(=O)(C1CC1)n1cc(-c2nccc(Nc3cc(NC4CCC(O)CC4)c(C#CC4CCCO4)cn3)n2)cn1 (stereo not drawn) [Example 376]
-0.30

Here is the next item to consider.
Record request: log10 IC50 value, item C[C@]1(O)CC[C@H](CNc2cc(Nc3ccnc(-c4cnn(S(=O)(=O)C5CC5)c4)n3)ncc2C#Cc2cnn(CCF)c2)CC1 [Example 380]
0.18
